property.name: melting point

- compound: "CC(C)(C#N)c1cc(Cc2cncnc2)cc(C(C)(C)C#N)c1"
  property.name: "melting point"
  result: "132 to 134 °C"
- compound: "CCn1ncc2c(Cl)c(CO)cnc21"
  property.name: "melting point"
  result: "56 °C"
- compound: "CCCCCCCCCCCCCCOc1ccc(CC(=O)Nc2cccc(C(=O)OCC)c2)cc1"
  property.name: "melting point"
  result: "91 to 94 °C"
- compound: "C=Cc1c(F)c(F)c(F)c2c1c(=O)c(C(=O)OCC)cn2C1CC1"
  property.name: "melting point"
  result: "188 to 189 °C"
- compound: "Clc1nc(-c2ccccc2)cc2ccccc12"
  property.name: "melting point"
  result: "75 to 77 °C"
- compound: "CCOP(=O)(OCC)c1cc2c(c(C)c1-c1c(OC)ccc3ccccc13)COC2"
  property.name: "melting point"
  result: "136 to 138 °C"
- compound: "CC(c1cc(Cl)ccc1N1CCCC1)C(C(N)=O)c1ccc(C(=O)O)cc1 (stereo not given)"
  property.name: "melting point"
  result: "202 to 204 °C"
- compound: "C[C@@H]1O[C@@]1(Cn1cncn1)c1cc(F)ccc1F"
  property.name: "melting point"
  result: "69 °C"
- compound: "O=C(Nc1c(C(O)(C(F)(F)F)C(F)(F)F)ccc2ccccc12)c1ccno1"
  property.name: "melting point"
  result: "162 to 164 °C"
- compound: "COc1ccc(-c2cc3ccc(OC)cc3n2C)cc1"
  property.name: "melting point"
  result: "163 to 166 °C"

Ref: a melting point compilation (Tetko et al.; mined from patent text by program, amines drawn as free bases though some values may be those of a salt)
